- Study System: Adenosine receptor A1 (Homo sapiens) (UniProt P30542)
- Sequence (P30542 whole entry): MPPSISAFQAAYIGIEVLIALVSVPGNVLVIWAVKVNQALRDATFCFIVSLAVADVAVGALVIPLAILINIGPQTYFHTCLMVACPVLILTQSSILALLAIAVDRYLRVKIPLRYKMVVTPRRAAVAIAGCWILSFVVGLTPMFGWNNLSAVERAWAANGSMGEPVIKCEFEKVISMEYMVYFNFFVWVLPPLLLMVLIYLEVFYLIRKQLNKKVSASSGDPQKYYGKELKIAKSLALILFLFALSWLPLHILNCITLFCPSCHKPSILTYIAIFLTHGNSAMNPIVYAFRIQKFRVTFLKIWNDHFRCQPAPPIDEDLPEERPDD
- Experiment Notes: Displacement of [125I]AB-MECA from human adenosine A1 receptor expressed in CHO cells at 10 uM
- Format: cell-based
The following compounds are listed with their measured Activity values.
Reply numerically in %, unit not repeated.

• O=C(Nc1cc(Nc2ccc(Cl)c(Cl)c2)nc2ccccc12)C1CCC1 = 22
• O=C(Nc1cc(NC2CCCC2)nc2ccccc12)C1CCCC1 = 80
• Clc1ccc(Nc2nc3ccccc3c3nc(C4CCCCC4)[nH]c23)cc1Cl = 39

Prompt line: // returns reported Activity for input `O=C(Nc1cc(Nc2ccc(Cl)c(Cl)c2)nc2ccccc12)C1CCCC1`
Response line: 17

Prompt line: Item: `O=C(Nc1cc(Nc2ccccc2)nc2ccccc12)C1CCC1`
Response line: 76

Prompt line: Next up: `Cc1ccc(Nc2cc(NC(=O)C3CCCCC3)c3ccccc3n2)cc1`
Response line: 63

Prompt line: Query `O=C(Nc1cc(Nc2ccc3c(c2)CCC3)nc2ccccc12)C1CCCC1` next
Response line: 47

Prompt line: Next compound: `O=C(Nc1cc(Nc2ccccc2)nc2ccccc12)c1ccco1`
Response line: 73

Prompt line: And then `O=C(Nc1cc(Nc2ccc(Cl)c(Cl)c2)nc2ccccc12)c1ccccc1` , what is it?
Response line: 23

====

- Study System: Adenosine receptor A1 (Homo sapiens) (UniProt P30542)
- Experiment Notes: Binding affinity to human adenosine A1 receptor expressed in CHO cells assessed as enhancement of DPCPX-induced displacement of [125I]AB-MECA from receptor at 10 uM after 90 mins relative to control
- Type: cell-based
Attribute Measured: Activity (%)
Please respond with the number in % and leave the unit unwritten.

As a guide, the following entries are already answered.
- O=C(Nc1cc(Nc2ccc(Cl)c(Cl)c2)nc2ccccc12)C1CCCC1: 125
- Clc1ccc(Nc2nc3ccccc3c3nc(C4CCCCC4)[nH]c23)cc1Cl: 120
- O=C(Nc1cc(Nc2ccccc2)nc2ccccc12)C1CCCCC1: 70
- COc1ccc(Nc2cc(NC(=O)C3CCCC3)c3ccccc3n2)cc1: 94
- O=C(Nc1cc(Nc2ccc3cn[nH]c3c2)nc2ccccc12)C1CCCC1: 72
- O=C(Nc1cc(Nc2ccc3c(c2)CCC3)nc2ccccc12)C1CCCCC1: 118

Prompt line: If you can, please state the reported Activity value of `O=C(Nc1cc(Nc2ccccc2)nc2ccccc12)C1CCCC1` .
Response line: 104

Prompt line: What do you have for `O=C(Nc1cc(Nc2ccccc2)nc2ccccc12)c1ccccc1` ?
Response line: 77

====

- Study System: Adenosine receptor A2b (Homo sapiens) (UniProt P29275)
- Sequence (whole entry): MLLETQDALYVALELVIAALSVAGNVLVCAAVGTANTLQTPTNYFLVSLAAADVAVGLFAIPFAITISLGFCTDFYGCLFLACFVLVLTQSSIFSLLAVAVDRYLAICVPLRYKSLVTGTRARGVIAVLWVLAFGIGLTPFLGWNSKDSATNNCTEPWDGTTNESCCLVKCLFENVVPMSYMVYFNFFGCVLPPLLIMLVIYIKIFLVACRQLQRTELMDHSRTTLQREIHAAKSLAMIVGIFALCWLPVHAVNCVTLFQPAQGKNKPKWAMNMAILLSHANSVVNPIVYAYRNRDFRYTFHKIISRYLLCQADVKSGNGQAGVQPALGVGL
- Experiment Notes: Displacement of [3H]MRS1754 from human adenosine A2B receptor expressed in CHO cells at 10 uM
- Assay type: cell-based
Each item that follows carries a reported Activity.
Quick note: unit goes after the number.

Below: 5 compounds and their reported Activity.
• Cc1ccc(Nc2cc(NC(=O)C3CCCCC3)c3ccccc3n2)cc1 = 64%
• COc1ccc(Nc2cc(NC(=O)C3CCCC3)c3ccccc3n2)cc1 = 35%
• O=C(Nc1cc(Nc2ccc(Cl)c(Cl)c2)nc2ccccc12)C1CCC1 = 51%
• O=C(Nc1cc(Nc2ccccc2)nc2ccccc12)C1CCCC1 = 61%
• O=C(Nc1cc(Nc2ccc(Cl)c(Cl)c2)nc2ccccc12)c1ccccc1 = 37%

Prompt line: Find the measured Activity: item `O=C(Nc1cc(Nc2ccc(Cl)c(Cl)c2)nc2ccccc12)C1CCCC1` , target or system Adenosine receptor A2b (Homo sapiens) (UniProt P29275).
Response line: -50%

Prompt line: Would you kindly repeat that for `O=C(Nc1cc(Nc2ccccc2)nc2ccccc12)C1CCC1` ?
Response line: 66%

Prompt line: Same thing, different compound: `Cc1ccc(Nc2cc(NC(=O)C3CCCC3)c3ccccc3n2)cc1`
Response line: 63%
